- testedTarget: IRAK4 (Homo sapiens, UniProt Q9NWZ3)
- protocol: OCI-LY-10 MSD assay for IRAK4 DC50
- Format: cell-based
- Design: endogenous in cells; host or cells: OCI-LY10
- details: OCI-LY10 cells, 4 hr incubation, concentration required to degrade 50% of protein
metricName: DC50

Solved cases (4 shown):
Query: May I ask what DC50 has been recorded for Cn1c(=O)n(C2CCC(=O)NC2=O)c2cccc(CCCOCC(C)(C)COCCCNCc3ccc(-n4cc(NC(=O)c5coc(-c6ccnc(NCC7CC7)c6)n5)c(C(F)F)n4)cc3)c21 (centres unmarked) ?
Response: 0.1 to 0.5 µM

Query: May I ask what DC50 has been recorded for CN(CCOCCOCCCc1cccc2c1C(=O)N(C1CCC(=O)NC1=O)C2=O)C(=O)c1ccc(-n2cc(NC(=O)c3coc(-c4ccnc(NCC5CC5)c4)n3)c(C(F)F)n2)cc1 (centres unmarked) ?
Response: < 0.05 µM

Query: May I ask what DC50 has been recorded for NC(=O)c1nn(-c2ccc(CNCCOCCOCCN3CCC(Nc4cccc5c4C(=O)N(C4CCC(=O)NC4=O)C5=O)CC3)cc2)cc1NC(=O)c1coc(-c2ccnc(NCC3CC3)c2)n1 (centres unmarked) ?
Response: > 1 µM

Query: May I ask what DC50 has been recorded for Cn1c(=O)n(C2CCC(=O)NC2=O)c2ccc(N3CCN(CCOCCNCc4ccc(-n5cc(NC(=O)c6coc(-c7ccnc(NCC8CC8)c7)n6)c(C(F)F)n5)cc4)CC3)cc21 (centres unmarked) ?
Response: < 0.05 µM

# input for lookup
Query: May I ask what DC50 has been recorded for NC(=O)c1nn(-c2ccc(C(=O)NCCOCCCOCCNc3cccc4c3C(=O)N(C3CCC(=O)NC3=O)C4=O)cc2)cc1NC(=O)c1coc(-c2ccnc(NCC3CC3)c2)n1 (centres unmarked) ?
Response: < 0.05 µM

====

- testedTarget: IRAK4 (Homo sapiens, UniProt Q9NWZ3)
- Sequence (Q9NWZ3 1-460): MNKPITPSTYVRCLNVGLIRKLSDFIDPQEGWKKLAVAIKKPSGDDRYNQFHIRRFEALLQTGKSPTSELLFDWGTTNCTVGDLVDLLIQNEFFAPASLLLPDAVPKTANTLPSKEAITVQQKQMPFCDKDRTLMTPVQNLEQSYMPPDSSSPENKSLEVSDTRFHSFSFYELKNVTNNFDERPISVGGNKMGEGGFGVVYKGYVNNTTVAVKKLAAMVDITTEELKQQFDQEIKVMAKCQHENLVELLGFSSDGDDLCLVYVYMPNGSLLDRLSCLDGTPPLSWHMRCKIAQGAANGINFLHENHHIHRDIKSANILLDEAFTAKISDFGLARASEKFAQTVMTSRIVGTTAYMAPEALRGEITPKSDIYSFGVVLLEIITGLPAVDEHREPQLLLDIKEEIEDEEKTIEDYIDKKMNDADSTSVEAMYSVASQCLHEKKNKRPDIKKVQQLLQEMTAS
- protocol: OCI-LY-10 degradation assay (western blot, % IRAK4 degraded after 4 hours)
- Type: cell-based
- Design: endogenous in cells; host or cells: OCI-LY10
- details: OCI-LY10 cells, 4 hours, 1 uM compound
metricName: OCI-LY10 % IRAK4 Degradation (1 uM)

Solved cases (10 shown):
Query: May I ask what OCI-LY10 % IRAK4 Degradation (1 uM) has been recorded for NC(=O)c1nn(-c2ccc(CNCCCc3ccc4c(c3)C(=O)N(C3CCC(=O)NC3=O)C4=O)cc2)cc1NC(=O)c1coc(-c2ccncc2)n1 (centres unmarked) [I-372] ?
Response: C (<20% degradation)

Query: May I ask what OCI-LY10 % IRAK4 Degradation (1 uM) has been recorded for NCc1nn(-c2ccc(C(=O)NCCOCCOCCNc3cccc4c3C(=O)N(C3CCC(=O)NC3=O)C4=O)cc2)cc1NC(=O)c1coc(-c2ccnc(NCC(F)(F)F)c2)n1 (centres unmarked) [I-215] ?
Response: A (>50% degradation)

Query: May I ask what OCI-LY10 % IRAK4 Degradation (1 uM) has been recorded for CN(CCOCCOCCCc1ccc2c(c1)C(=O)N(C1CCC(=O)NC1=O)C2=O)Cc1ccc(-n2cc(NC(=O)c3coc(-c4ccnc(NCC5CC5)c4)n3)c(C(N)=O)n2)cc1 (centres unmarked) [I-308] ?
Response: A (>50% degradation)

Query: May I ask what OCI-LY10 % IRAK4 Degradation (1 uM) has been recorded for CN(CCNCCCc1ccc2c(c1)C(=O)N(C1CCC(=O)NC1=O)C2=O)C(=O)c1ccc(-n2cc(NC(=O)c3coc(-c4ccnc(NCC5CC5)c4)n3)c(C(N)=O)n2)cc1 (centres unmarked) [I-397] ?
Response: A (>50% degradation)

Query: May I ask what OCI-LY10 % IRAK4 Degradation (1 uM) has been recorded for O=C1CCC(N2C(=O)c3ccc(N4CCN(CCOCCNCc5ccc(-n6cc(NC(=O)c7coc(-c8ccnc(NCC9CC9)c8)n7)c(C(F)F)n6)cc5)CC4)cc3C2=O)C(=O)N1 (centres unmarked) [I-393] ?
Response: A (>50% degradation)

Query: May I ask what OCI-LY10 % IRAK4 Degradation (1 uM) has been recorded for CN(CCCCCCCCCc1cccc2c1C(=O)N(C1CCC(=O)NC1=O)C2=O)C(=O)c1ccc(-n2cc(NC(=O)c3coc(-c4ccnc(NCC5CC5)c4)n3)c(C(N)=O)n2)cc1 (centres unmarked) [I-230] ?
Response: C (<20% degradation)

Query: May I ask what OCI-LY10 % IRAK4 Degradation (1 uM) has been recorded for O=C1CCC(N2C(=O)c3cccc(NCCc4cnnn4CCOCCOCCNCc4ccc(-n5cc(NC(=O)c6coc(-c7ccnc(NCC8CC8)c7)n6)c(C(F)F)n5)cc4)c3C2=O)C(=O)N1 (centres unmarked) [I-342] ?
Response: A (>50% degradation)

Query: May I ask what OCI-LY10 % IRAK4 Degradation (1 uM) has been recorded for NC(=O)c1nn(-c2ccc(CNCCOCCOCCCc3cccc4c3CN(C3CCC(=O)NC3=O)C4=O)cc2)cc1NC(=O)c1coc(-c2ccnc(NCC3CC3)c2)n1 (centres unmarked) [I-324] ?
Response: B (>20-50% degradation)

Query: May I ask what OCI-LY10 % IRAK4 Degradation (1 uM) has been recorded for O=C1CCC(n2c(=O)oc3c(CCCOCCOCCNC(=O)c4ccc(-n5cc(NC(=O)c6coc(-c7ccnc(NCC(F)(F)F)c7)n6)c(C(F)F)n5)cc4)cccc32)C(=O)N1 (centres unmarked) [I-256] ?
Response: A (>50% degradation)

Query: May I ask what OCI-LY10 % IRAK4 Degradation (1 uM) has been recorded for O=C1CCC(N2C(=O)c3cccc(NCCCCCNCCNC(=O)c4ccc(-n5cc(NC(=O)c6coc(-c7ccnc(NCC8CC8)c7)n6)c(C(F)F)n5)cc4)c3C2=O)C(=O)N1 (centres unmarked) [I-245] ?
Response: A (>50% degradation)

# input for lookup
Query: May I ask what OCI-LY10 % IRAK4 Degradation (1 uM) has been recorded for NC(=O)c1nn(-c2ccc(C(=O)NCCOCCOCCN3CCC(Nc4cccc5c4C(=O)N(C4CCC(=O)NC4=O)C5=O)CC3)cc2)cc1NC(=O)c1coc(-c2ccnc(NCC3CC3)c2)n1 (centres unmarked) [I-290] ?
Response: B (>20-50% degradation)

====

- protocol: Pharmacokinetics in Sprague Dawley rats (plasma and brain concentrations, PK parameters)
- Type: in vivo
- details: Sprague Dawley, rat, plasma, po, 10 mg/kg, Sprague Dawley rat, po 10 mg/kg, plasma, 2 h, Rat 6; read-out: Concentration Rat 6
metricName: concentration at 2 h (ng/mL)
One number for each entry, in ng/mL.

Query: May I ask what concentration at 2 h has been recorded for O=C1CCC(N2C(=O)c3cccc(NCCOCCOCCNCc4ccc(-n5cc(NC(=O)c6coc(-c7ccnc(NCC8CC8)c7)n6)c(C(F)F)n5)cc4)c3C2=O)C(=O)N1 (stereo not shown) ?
Response: 0.737

====

- protocol: Pharmacokinetics in Sprague Dawley rats (plasma and brain concentrations, PK parameters)
- Type: in vivo
- details: Sprague-Dawley, rat, plasma, iv, 3 mg/kg, Sprague Dawley rat, iv 3 mg/kg, plasma, 24 h, mean of 3 rats; read-out: Concentration Mean
metricName: concentration at 24 h (ng/mL)
Answers are plain numbers, in ng/mL.

Query: May I ask what concentration at 24 h has been recorded for O=C1CCC(N2C(=O)c3cccc(NCCOCCOCCNCc4ccc(-n5cc(NC(=O)c6coc(-c7ccnc(NCC8CC8)c7)n6)c(C(F)F)n5)cc4)c3C2=O)C(=O)N1 (stereo not shown) [I-210] ?
Response: 0.496

====

I'd appreciate it if you could supply DC50 values for the items below.
- testedTarget: UniProtKB Q9NWZ3
- protocol: OCI-LY-10 MSD assay for IRAK4 DC50
- Format: cell-based
- Set-up: endogenous in cells; host or cells: OCI-LY10
- details: OCI-LY10 cells, 4 hr incubation, concentration required to degrade 50% of protein

Solved cases (3 shown):
Query: Could you share what DC50 was measured for O=C1CCC(N2Cc3cc(CNC(=O)NCCOCCOCCNCc4ccc(-n5cc(NC(=O)c6coc(-c7ccnc(NCC8CC8)c7)n6)c(C(F)F)n5)cc4)ccc3C2=O)C(=O)N1 (centres unmarked) [I-529] , tested on UniProtKB Q9NWZ3?
Response: 50 to 100 nM

Query: Could you share what DC50 was measured for Cn1c(=O)n(C2CCC(=O)NC2=O)c2cccc(CCCOCCNCc3ccc(-n4cc(NC(=O)c5coc(-c6ccnc(NCC7CC7)c6)n5)c(C(F)F)n4)cc3)c21 (centres unmarked) [I-530] , tested on UniProtKB Q9NWZ3?
Response: < 50 nM

Query: Could you share what DC50 was measured for O=C1CCC(N2C(=O)c3cccc(CCCNC(=O)c4ccc(-n5cc(NC(=O)c6coc(-c7ccncc7)n6)c(C(F)F)n5)cc4)c3C2=O)C(=O)N1 (centres unmarked) [I-255] , tested on UniProtKB Q9NWZ3?
Response: > 1000 nM

Please state DC50 for every compound in the list that follows.
1. Cn1c(=O)n(C2CCC(=O)NC2=O)c2ccc(CCCOCCOCCNC(=O)c3ccc(-n4cc(NC(=O)c5coc(-c6ccnc(NCC7CC7)c6)n5)c(C(F)F)n4)cn3)cc21 (centres unmarked) [I-461]
2. Cn1c(=O)n(C2CCC(=O)NC2=O)c2cccc(CCCOCCCNC(=O)c3ccc(-n4cc(NC(=O)c5coc(-c6ccnc(NCC7CC7)c6)n5)c(C(F)F)n4)cc3)c21 (centres unmarked) [I-460]
3. O=C1CCC(N2C(=O)c3ccc(N4CCN(CCOCCNCc5ccc(-n6cc(NC(=O)c7coc(-c8ccnc(NCC9CC9)c8)n7)c(C(F)F)n6)cc5)CC4)cc3C2=O)C(=O)N1 (centres unmarked) [I-393]

Response:
["< 50 nM", "< 50 nM", "100 to 500 nM"]

Please state DC50 for every compound in the list that follows.
1. O=C1CCC(N2C(=O)c3cccc(NC4CCN(CCOCCOCCNC(=O)c5ccc(-n6cc(NC(=O)c7coc(-c8ccnc(NCC9CC9)c8)n7)c(C(F)F)n6)cc5)CC4)c3C2=O)C(=O)N1 (centres unmarked) [I-267]
2. NC(=O)c1nn(-c2ccc(C(=O)NCCOCCOCCn3c(=O)n(C4CCC(=O)NC4=O)c4ccccc43)cc2)cc1NC(=O)c1coc(-c2ccnc(NCC(F)(F)F)c2)n1 (centres unmarked) [I-231]

Response:
["50 to 100 nM", "< 50 nM"]

Please state DC50 for every compound in the list that follows.
1. Cc1ncsc1-c1ccc(CNC(=O)[C@@H]2C[C@@H](O)CN2C(=O)[C@@H](NCCOCCOCCOCCNCc2ccc(-n3cc(NC(=O)c4coc(-c5ccnc(NCC(F)(F)F)c5)n4)c(C(N)=O)n3)cc2)C(C)(C)C)cc1 [I-415]
2. Cn1c(=O)n(C2CCC(=O)NC2=O)c2cccc(CCCNCC3COC4C(CNCc5ccc(-n6cc(NC(=O)c7coc(-c8ccnc(NCC(F)(F)F)c8)n7)c(C(F)F)n6)cc5)COC34)c21 (centres unmarked) [I-536]

Response:
> 1000 nM
< 50 nM

Query: Could you share what DC50 was measured for NC(=O)c1nn(-c2ccc(CNCCCOCCCOCCCNc3cccc4c3C(=O)N(C3CCC(=O)NC3=O)C4=O)cc2)cc1NC(=O)c1coc(-c2ccnc(NCC3CC3)c2)n1 (centres unmarked) [I-398] , tested on UniProtKB Q9NWZ3?
Response: 100 to 500 nM
